molecular target: bovine adrenal gland receptor preparations (Bos taurus); construct: aliquots of a membrane preparation of bovine adrenal cortex in tris buffer; from tissue; host or cells: bovine adrenal cortex membranes; test: inhibition of angiotensin II bonding to bovine adrenal gland receptor preparations; assay type: binding; details: 50% inhibition of the specific 125I-angiotensin II (50 pM) bonding; bovine adrenal cortex membranes; 45 minutes
property: IC50 (nM)

> print(dat)
                           structure.smiles  property  recorded.result
1  CCCCc1nc2ccc(NC(=O)C3CCCCC3)cc2n1Cc1ccc(-c2ccccc2C(=O)O)cc1      IC50               84

---

target: bovine adrenal gland receptor preparations (Bos taurus, UniProt P25104); construct: aliquots of a membrane preparation of bovine adrenal cortex in tris buffer; from tissue; host or cells: bovine adrenal cortex membranes; assay: inhibition of angiotensin II bonding to bovine adrenal gland receptor preparations; format: binding
Sequence (P25104 whole entry): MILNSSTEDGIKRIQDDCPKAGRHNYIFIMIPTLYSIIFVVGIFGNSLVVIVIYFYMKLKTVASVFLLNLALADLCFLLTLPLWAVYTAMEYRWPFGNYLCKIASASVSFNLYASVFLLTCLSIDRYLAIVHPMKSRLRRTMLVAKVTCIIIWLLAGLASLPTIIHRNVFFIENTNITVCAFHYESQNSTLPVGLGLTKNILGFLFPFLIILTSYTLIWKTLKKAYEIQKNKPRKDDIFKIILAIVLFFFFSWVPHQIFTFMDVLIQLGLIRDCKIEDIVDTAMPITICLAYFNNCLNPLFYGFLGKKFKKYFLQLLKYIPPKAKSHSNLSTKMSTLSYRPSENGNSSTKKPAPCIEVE
pIC50: −log10 of the molar value.
property: pIC50

> print(dat)
                                    molecule  property  recorded.result
 1  CCCCc1nc2ccc(N(Cc3ccccc3)C(=O)NC3CCCCC3)cc2n1Cc1ccc(-c2ccccc2C(=O)O)cc1 [J]     pIC50             7.27
 2  CCCCc1nc2ccc(NC(=O)NC3CCCCO3)cc2n1Cc1ccc(-c2ccccc2C(=O)O)cc1 (stereo not drawn) [N]     pIC50             7.19
 3  CCCCc1nc2ccc(N(CCCC)C(=O)NC3CCCCC3)cc2n1Cc1ccc(-c2ccccc2C(=O)O)cc1 [B]     pIC50             7.54
 4  CCCCc1nc2ccc(NC(=O)N(C)C)cc2n1Cc1ccc(-c2ccccc2C(=O)O)cc1 [R]     pIC50             7.14
 5  CCCCc1nc2ccc(N3C(=O)[C@H]4CCCC[C@H]4C3=O)cc2n1Cc1ccc(-c2ccccc2C(=O)O)cc1 [Y]     pIC50             6.82
 6  CCCCc1nc2ccc(N(CCC)C(=O)NC3CCCCC3)cc2n1Cc1ccc(-c2ccccc2C(=O)O)cc1 [D]     pIC50             7.36
 7  CCCCc1nc2ccc(N3C(=O)[C@H]4CCCC[C@H]4C3=O)cc2n1Cc1ccc(-c2ccccc2-c2nn[nH]n2)cc1 [CC]     pIC50             6.00
 8  CCCCc1nc2ccc(NC(=O)C3CCCC3)cc2n1Cc1ccc(-c2ccccc2C(=O)O)cc1 [BB]     pIC50             7.34
 9  CCCCc1nc2ccc(NC(=O)C(C)C)cc2n1Cc1ccc(-c2ccccc2C(=O)O)cc1 [M]     pIC50             7.21
10  CCCCc1nc2ccc(NC(=O)CCC)cc2n1Cc1ccc(-c2ccccc2C(=O)O)cc1 [P]     pIC50             7.17
11  CCCCc1nc2ccc(N(Cc3ccccc3)C(=O)N(C)C)cc2n1Cc1ccc(-c2ccccc2C(=O)O)cc1 [Z]     pIC50             6.88
12  CCCCc1nc2ccc(N(CC)C(=O)NC3CCCCC3)cc2n1Cc1ccc(-c2ccccc2C(=O)O)cc1 [C]     pIC50             7.51
13  CCCCc1nc2ccc(NC(=O)NCCCCCO)cc2n1Cc1ccc(-c2ccccc2C(=O)O)cc1 [T]     pIC50             7.12
14  CCCCc1nc2ccc(N3Cc4ccccc4C3=O)cc2n1Cc1ccc(-c2ccccc2C(=O)O)cc1 [I]     pIC50             7.29
15  CCCCc1nc2c(C)ccc(O)c2n1Cc1ccc(-c2ccccc2-c2nn[nH]n2)cc1 [X]     pIC50             7.00
16  CCCCc1nc2ccc(N(Cc3ccccc3)C(=O)NC)cc2n1Cc1ccc(-c2ccccc2C(=O)O)cc1 [H]     pIC50             7.29
17  CCCCNC(=O)N(C)c1ccc2nc(CCCC)n(Cc3ccc(-c4ccccc4C(=O)O)cc3)c2c1 [W]     pIC50             7.07
18  CCCCC(=O)Nc1ccc2nc(CCCC)n(Cc3ccc(-c4ccccc4C(=O)O)cc3)c2c1 [K]     pIC50             7.24
19  CCCCc1nc2ccc(N(Cc3ccccc3)C(=O)OCC)cc2n1Cc1ccc(-c2ccccc2C(=O)O)cc1 [Q]     pIC50             7.17
20  CCCCNC(=O)Nc1ccc2nc(CCCC)n(Cc3ccc(-c4ccccc4C(=O)O)cc3)c2c1 [O]     pIC50             7.19
21  CCCCCN(C(=O)NC)c1ccc2nc(CCCC)n(Cc3ccc(-c4ccccc4C(=O)O)cc3)c2c1 [U]     pIC50             7.10
22  CCCCCN(C(=O)NC1CCCCC1)c1ccc2nc(CCCC)n(Cc3ccc(-c4ccccc4C(=O)O)cc3)c2c1 [G]     pIC50             7.34
23  CCCCCCNC(=O)N(Cc1ccccc1)c1ccc2nc(CCCC)n(Cc3ccc(-c4ccccc4C(=O)O)cc3)c2c1 [A]     pIC50             7.54
24  CCCCc1nc2ccc(N(C)C(=O)NC3CCCCC3)cc2n1Cc1ccc(-c2ccccc2C(=O)O)cc1 [E]     pIC50             7.34
25  CCCCCCN(C(=O)NC1CCCCC1)c1ccc2nc(CCCC)n(Cc3ccc(-c4ccccc4C(=O)O)cc3)c2c1 [S]     pIC50             7.14
26  CCCCc1nc2ccc(NC(=O)CC)cc2n1Cc1ccc(-c2ccccc2C(=O)O)cc1 [L]     pIC50             7.24
27  CCCCCCNC(=O)N(CCc1ccccc1)c1ccc2nc(CCCC)n(Cc3ccc(-c4ccccc4C(=O)O)cc3)c2c1 [AA]     pIC50             7.00

---

Target: angiotensin II (Rattus norvegicus, UniProt P25095)
Construct: The measured parameter is the increase in the arterial blood pressure; from tissue; host or cells: whole anaesthetised rat with destroyed spine, in vivo (vascular receptors)
Sequence (P25095 1-359): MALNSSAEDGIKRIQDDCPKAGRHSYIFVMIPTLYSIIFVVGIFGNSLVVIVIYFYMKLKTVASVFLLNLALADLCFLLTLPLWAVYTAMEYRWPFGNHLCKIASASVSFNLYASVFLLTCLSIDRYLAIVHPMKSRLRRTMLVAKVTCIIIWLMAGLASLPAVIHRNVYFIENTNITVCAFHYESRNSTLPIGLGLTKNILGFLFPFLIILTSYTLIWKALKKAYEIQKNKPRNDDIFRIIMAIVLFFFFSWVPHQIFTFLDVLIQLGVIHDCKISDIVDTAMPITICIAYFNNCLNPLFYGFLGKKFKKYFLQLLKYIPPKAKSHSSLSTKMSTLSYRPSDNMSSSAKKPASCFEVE
Assay: displacement of angiotensin II dose-effect curves (increase in arterial blood pressure) in rats, pA2
Format: in vivo
Settings: average, angiotensin II antagonism in rats, 10, 20 and 30 mg/kg i.v.
property: pA2 values

> print(dat)
                                   molecule    property  recorded.result
1  CCCCCCN(C(=O)NC1CCCCC1)c1ccc2nc(CCCC)n(Cc3ccc(-c4ccccc4C(=O)O)cc3)c2c1  pA2 values             6,69
2  CCCCc1nc2ccc(N(C)C(=O)NC3CCCCC3)cc2n1Cc1ccc(-c2ccccc2C(=O)O)cc1  pA2 values             7,34
3  CCCCNC(=O)N(C)c1ccc2nc(CCCC)n(Cc3ccc(-c4ccccc4C(=O)O)cc3)c2c1  pA2 values             6,28
4  CCCCc1nc2ccc(N3C(=O)[C@H]4CCCC[C@H]4C3=O)cc2n1Cc1ccc(-c2ccccc2C(=O)O)cc1  pA2 values             6,97
5  CCCCc1nc2ccc(N(CCC)C(=O)NC3CCCCC3)cc2n1Cc1ccc(-c2ccccc2C(=O)O)cc1  pA2 values             6,59
6  CCCCc1nc2ccc(N(Cc3ccccc3)C(=O)NC)cc2n1Cc1ccc(-c2ccccc2C(=O)O)cc1  pA2 values             6,48
7  CCCCc1nc2ccc(NC(=O)NC3CCCCO3)cc2n1Cc1ccc(-c2ccccc2C(=O)O)cc1 (centres unmarked)  pA2 values             7,02
8  CCCCc1nc2ccc(NC(=O)CCC)cc2n1Cc1ccc(-c2ccccc2C(=O)O)cc1  pA2 values             6,46
